Test: Half life in mouse at 3 mg/kg, iv
Assay type: ADME, organism-based
Parameters: dose 3 mg/kg, route intravenous
Details: in vivo
Measured parameter: half-life (min)
Please reply with the bare figure in min and do not write the unit itself.

# molecule `COc1cc2nccc(Oc3ccc4c(C(=O)Nc5ccc(Cl)cc5)cccc4c3)c2cc1OC.CS(=O)(=O)O` ; its half-life = 1020

###

Target: Serine/threonine-protein kinase B-raf (Homo sapiens, UniProt P15056, V600E)
Sequence (P15056 2-766 V600E limits assumed): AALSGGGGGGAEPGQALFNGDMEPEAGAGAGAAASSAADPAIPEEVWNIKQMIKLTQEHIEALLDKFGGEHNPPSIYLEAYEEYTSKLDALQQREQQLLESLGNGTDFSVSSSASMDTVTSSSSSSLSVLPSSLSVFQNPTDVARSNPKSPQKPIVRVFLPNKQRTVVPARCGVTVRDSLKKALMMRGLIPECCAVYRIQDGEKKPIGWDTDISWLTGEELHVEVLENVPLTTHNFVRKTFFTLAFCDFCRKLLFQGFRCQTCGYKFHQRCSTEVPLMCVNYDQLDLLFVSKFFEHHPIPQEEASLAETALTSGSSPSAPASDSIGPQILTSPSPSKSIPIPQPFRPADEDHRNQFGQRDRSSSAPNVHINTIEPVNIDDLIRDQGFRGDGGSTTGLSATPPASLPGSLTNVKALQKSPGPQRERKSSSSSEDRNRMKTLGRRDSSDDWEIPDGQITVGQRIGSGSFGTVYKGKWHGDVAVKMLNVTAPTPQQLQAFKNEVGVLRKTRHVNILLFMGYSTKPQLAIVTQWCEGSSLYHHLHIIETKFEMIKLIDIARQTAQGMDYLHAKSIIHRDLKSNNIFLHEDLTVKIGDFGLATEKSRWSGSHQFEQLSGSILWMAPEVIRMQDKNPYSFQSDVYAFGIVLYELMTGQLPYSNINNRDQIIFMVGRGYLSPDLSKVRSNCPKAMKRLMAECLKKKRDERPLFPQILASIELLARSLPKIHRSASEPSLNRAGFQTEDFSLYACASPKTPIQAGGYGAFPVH
Assay: Inhibition of b-Raf V600E
Measured parameter: pIC50
Quick note: pIC50 means taking -log10 of the concentration in moles per liter.

For this compound ( `COc1cc2nccc(Oc3ccc4c(C(=O)Nc5ccc(Cl)cc5)cccc4c3)c2cc1OC` ), measured pIC50 is 7.40
